Reported Ki values for a set of compounds
target_or_test_system: human D3 receptor (Homo sapiens (Human))
Sequence (P35462 whole entry): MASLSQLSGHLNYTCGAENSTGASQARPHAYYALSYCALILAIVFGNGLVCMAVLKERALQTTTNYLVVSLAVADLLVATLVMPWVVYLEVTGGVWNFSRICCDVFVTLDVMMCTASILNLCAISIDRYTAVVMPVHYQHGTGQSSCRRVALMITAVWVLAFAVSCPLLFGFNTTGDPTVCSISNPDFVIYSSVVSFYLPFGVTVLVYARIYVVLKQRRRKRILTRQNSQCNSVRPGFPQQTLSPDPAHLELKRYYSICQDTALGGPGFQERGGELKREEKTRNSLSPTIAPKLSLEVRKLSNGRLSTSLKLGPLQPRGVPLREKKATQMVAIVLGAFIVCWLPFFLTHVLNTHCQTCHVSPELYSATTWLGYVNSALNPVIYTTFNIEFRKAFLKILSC
Please state the value followed by its unit.

INSERT INTO measurements (compound, result) VALUES
  ('O=C(CC1COC1)N[C@H]1CC[C@H](CCN2CCN(c3nccc4c3CCO4)CC2)CC1', '12.1 nM'),
  ('O=C(N[C@H]1CC[C@H](CCN2CCN(c3nccc4c3CCO4)CC2)CC1)c1ccccc1', '7.66 nM'),
  ('CN(C)S(=O)(=O)N[C@H]1CC[C@H](CCN2CCN(c3nccc4c3CCO4)CC2)CC1', '24.9 nM');

[ask] Return Ki measured with human D3 receptor (Homo sapiens (Human)) given this compound: COCCC(=O)N[C@H]1CC[C@H](CCN2CCN(c3nccc4occc34)CC2)CC1
[reply] 24 nM

###

Reported melting point values for a set of compounds
Please state the value followed by its unit.

Known melting point results, listed for orientation:
INSERT INTO measurements (compound, measure, result) VALUES
  ('COCCC(=O)N[C@H]1CC[C@H](CCN2CCN(c3nc(C)cc4occc34)CC2)CC1 [Example 99]', 'melting point', '158 °C'),
  ('O=C(N[C@H]1CC[C@H](CCN2CCN(c3nccc4c3CCO4)CC2)CC1)c1ccc(N2CCS(=O)(=O)CC2)cc1 [Example 125]', 'melting point', '261.5 °C'),
  ('O=C(N[C@H]1CC[C@H](CCN2CCN(c3nccc4c3CCO4)CC2)CC1)C1CCOCC1 [Example 33]', 'melting point', '263 °C');

[ask] Quick check: melting point of Cc1cc2c(c(N3CCN(CC[C@H]4CC[C@H](NC(=O)C5CCOCC5)CC4)CC3)n1)CCO2 [Example 101] ?
[reply] 234.5 °C

[ask] Please do the same for CC(C)(C)C(=O)N[C@H]1CC[C@H](CCN2CCN(c3nccc4c3CCO4)CC2)CC1 [Example 70] as well.
[reply] 185 °C

[ask] Please do the same for Cc1cnc(N2CCN(CC[C@H]3CC[C@H](NC(=O)CC4CCOCC4)CC3)CC2)c2c1OCC2 [Example 110] as well.
[reply] 199 °C

[ask] Please do the same for N#CCC(=O)N[C@H]1CC[C@H](CCN2CCN(c3nccc4c3CCO4)CC2)CC1 [Example 59] as well.
[reply] 188 °C

[ask] Please do the same for O=C(C[C@H]1COCCO1)N[C@H]1CC[C@H](CCN2CCN(c3nccc4c3CCO4)CC2)CC1 [Example 67] as well.
[reply] 192 °C

###

target_or_test_system: human 5-HT2A receptor (Homo sapiens (Human), UniProt P28223)
Sequence (P28223 whole entry): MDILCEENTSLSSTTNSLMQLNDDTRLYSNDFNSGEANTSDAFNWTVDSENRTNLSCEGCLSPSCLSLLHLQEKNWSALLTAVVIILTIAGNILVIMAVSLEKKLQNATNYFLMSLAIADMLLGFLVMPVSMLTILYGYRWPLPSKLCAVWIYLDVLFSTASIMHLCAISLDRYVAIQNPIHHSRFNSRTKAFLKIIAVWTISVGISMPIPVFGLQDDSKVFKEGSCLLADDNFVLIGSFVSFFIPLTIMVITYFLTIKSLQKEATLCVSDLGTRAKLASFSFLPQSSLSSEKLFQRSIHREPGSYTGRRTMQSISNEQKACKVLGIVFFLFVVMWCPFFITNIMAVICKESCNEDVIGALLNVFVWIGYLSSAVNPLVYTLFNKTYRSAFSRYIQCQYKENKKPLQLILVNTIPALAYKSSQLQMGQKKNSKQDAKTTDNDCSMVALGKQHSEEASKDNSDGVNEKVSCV
experimental_protocol: Radioligand binding assay, [3H]-ketanserin, human 5-HT2A receptor
Binarize Ki at 20 nM; below is Y, at or above is N.

Answered examples (6):
INSERT INTO results (structure_notation, qualitative_label) VALUES
  ('CC(C)(C)C(=O)N[C@H]1CC[C@H](CCN2CCN(c3nccc4c3CCO4)CC2)CC1', 'Y'),
  ('O=C(C[C@H]1CC[C@H](O)CC1)N[C@H]1CC[C@H](CCN2CCN(c3nccc4occc34)CC2)CC1', 'Y'),
  ('O=C(CCC(F)(F)F)N[C@H]1CC[C@H](CCN2CCN(c3nccc4c3CCO4)CC2)CC1', 'N'),
  ('CS(=O)(=O)CC(=O)N[C@H]1CC[C@H](CCN2CCN(c3nccc4c3CCO4)CC2)CC1', 'Y'),
  ('CCC(=O)N[C@H]1CC[C@H](CCN2CCN(c3nccc4occc34)CC2)CC1', 'Y'),
  ('O=C(C[C@H]1CCCO1)N[C@H]1CC[C@H](CCN2CCN(c3nccc4c3CCO4)CC2)CC1', 'Y');

[ask] Is the reported Ki for O=C(Cc1noc2ccccc12)N[C@H]1CC[C@H](CCN2CCN(c3nccc4c3CCO4)CC2)CC1 strictly below 20 nM?
[reply] N

[ask] Please do the same for O=C(N[C@H]1CC[C@H](CCN2CCN(c3nccc4c3CCO4)CC2)CC1)c1ccc(N2CCCCC2)cc1 as well.
[reply] Y
